tested on: NCI-H23 lung; experiment: NCI tumour cell line growth inhibition, 48 h; in the data active = GI50 below about 0.43 µM; inactive = the rest
Answer with one of the outcomes YES (active), NO (inactive)

See these solved cases before continuing.
# Molecule, Category Label
data = [
    ("COc1cc(/C=C2\\C[C@H]3[C@@H]4CC=C5C[C@@H](O)CC[C@]5(C)[C@H]4CC[C@]3(C)[C@H]2O)ccc1OCCN1CCCC1", "NO"),
    ("COC1C(CO)OC(n2c3ccccc3c3c4c(c5c6ccccc6[nH]c5c32)C(=O)NC4=O)C(O)C1O (stereo not given)", "YES"),
    ("COc1cccc(CCC2CCCN(c3cc(C)nc(N)n3)C2)c1 (stereo not given)", "NO"),
    ("CN(C)c1ccc(/C=C/c2ccnc3c(O)cccc23)cc1", "NO"),
    ("CSc1ccc(-c2ccccc(=O)c2O)cc1", "NO"),
    ("NS(=O)(=O)OCC1OC(n2cnc3cncnc32)C(O)C1O (stereo not given)", "YES"),
    ("O=c1cc(-c2ccccc2)oc2ccc(OC/C(=N/O)c3ccccc3)cc12", "NO"),
    ("OC(c1cc(-c2cccc(Cl)c2)nc2ccccc12)C1CCCCN1 (stereo not given)", "NO"),
]

Which result was noted for this molecule in the test: COC1=CC(c2ccc[nH]2)=N/C1=C\c1[nH]c(C)c(CC(=O)OCc2ccccc2)c1CCC(=O)OCc1ccccc1
NO

Which result was noted for this molecule in the test: Cc1cc(=O)[nH]c(N/N=C/c2cc(Br)ccc2O)n1
NO
